biological target: HCV polymerase (NS5B570n-Con1) (Hepatitis C virus genotype 1b, UniProt Q9WMX2); construct: contains a 21 amino acid deletion at the C-terminus relative to the full-length HCV polymerase; 6-histidine (N); made in house; host or cells: E. coli strain BL21(DE) pLysS (pET17b); assay: biochemical; design: species or system HCV Con1 strain; details: IC50 HCV NS5B RNA Polymerase Assay, values without asterisk; 20 nM NS5B570n-Con1 enzyme, 20 nM cIRES RNA template
metric: pIC50
In simple prose, pIC50 is minus the logarithm base ten of a concentration in moles per litre.

Below, each entry is followed by its recorded pIC50 result.
INSERT INTO results (chemical_structure, metric, readout_number) VALUES
  ('COc1c(C(=O)NCc2ccccc2)cc(-c2ccc[nH]c2=O)cc1C(C)(C)C', 'pIC50', 6.00),
  ('COc1c(C(=O)NCc2ccncc2)cc(-c2ccc[nH]c2=O)cc1C(C)(C)C', 'pIC50', 6.03);

The recorded pIC50 for entry COc1c(NC(=O)c2ccc(NS(C)(=O)=O)cc2Cl)cc(-c2ccc[nH]c2=O)cc1C(C)(C)C equals 7.96

The recorded pIC50 for entry CC(C)(C)c1cc(/C=C/c2ccc(NS(C)(=O)=O)cc2C(=O)O)cc(-c2ccc[nH]c2=O)c1 equals 8.10

The recorded pIC50 for entry COc1ccc(-c2ccc[nH]c2=O)cc1C1(C)CC1 equals 5.91

###

Measured log10 IC50 accompanies every entry in the list below.
molecular target: HCV polymerase (NS5B570n-Con1) (Hepatitis C virus genotype 1b); construct: contains a 21 amino acid deletion at the C-terminus relative to the full-length HCV polymerase; 6-histidine (N); made in house; host or cells: E. coli strain BL21(DE) pLysS (pET17b); assay: biochemical; design: species or system HCV Con1 strain; settings: IC50 HCV NS5B RNA Polymerase Assay, values without asterisk; 20 nM NS5B570n-Con1 enzyme, 20 nM cIRES RNA template;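 further: recombinant His-tagged enzyme from E. coli, radiolabeled nucleotide incorporation into acid-insoluble RNA read by scintillation after filtration, no-enzyme background subtracted, activity relative to positive control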
Note: values are log10 of IC50 expressed in nM.

INSERT INTO results (molecule, measured_on, readout_number) VALUES
  ('COc1c(CC(CN2CCOCC2)c2ccc(NS(C)(=O)=O)cc2)cc(-c2ccc[nH]c2=O)cc1C(C)(C)C (stereo not drawn)', 'HCV polymerase (NS5B570n-Con1) (Hepatitis C virus genotype 1b)', 1.08),
  ('COc1c(C(=O)Nc2ccc(CNS(C)(=O)=O)cc2)cc(-c2ccc[nH]c2=O)cc1C(C)(C)C', 'HCV polymerase (NS5B570n-Con1) (Hepatitis C virus genotype 1b)', 1.79),
  ('COc1c(NC(=O)c2ccc(NS(C)(=O)=O)cc2)cc(-c2ccc(C)[nH]c2=O)cc1C(C)(C)C', 'HCV polymerase (NS5B570n-Con1) (Hepatitis C virus genotype 1b)', 1.28),
  ('COc1c(C(=O)c2ccnc(N)c2)cc(-c2ccc[nH]c2=O)cc1C(C)(C)C', 'HCV polymerase (NS5B570n-Con1) (Hepatitis C virus genotype 1b)', 1.51),
  ('CC(C)(C)c1cc(C#Cc2ccc(NS(C)(=O)=O)cc2F)c(O)c(-c2ccc[nH]c2=O)c1', 'HCV polymerase (NS5B570n-Con1) (Hepatitis C virus genotype 1b)', 1.84),
  ('CN(C(=O)c1ccc(NS(C)(=O)=O)cc1)c1cc(-c2ccc[nH]c2=O)cc(C(C)(C)C)c1', 'HCV polymerase (NS5B570n-Con1) (Hepatitis C virus genotype 1b)', 0.85),
  ('COCCNc1ccc(C(=O)Nc2cc(-c3ccc[nH]c3=O)cc(C(C)(C)C)c2OC)cc1', 'HCV polymerase (NS5B570n-Con1) (Hepatitis C virus genotype 1b)', 2.26),
  ('Cc1cc(-c2cc(C)c[nH]c2=O)cc(C(C)(C)C)c1', 'HCV polymerase (NS5B570n-Con1) (Hepatitis C virus genotype 1b)', 3.51);

The recorded log10 IC50 for entry COc1c(NC(=O)c2ccc(NC3CC3)nc2)cc(-c2ccc[nH]c2=O)cc1C(C)(C)C equals 1.85

The recorded log10 IC50 for entry COc1c(/C=C(\CO)c2ccc(NS(C)(=O)=O)cc2)cc(-c2ccc[nH]c2=O)cc1C(C)(C)C equals 1.41

The recorded log10 IC50 for entry COc1c(C(=O)Nc2cccc(CO)c2)cc(-c2ccc[nH]c2=O)cc1C(C)(C)C equals 2.58

The recorded log10 IC50 for entry COc1c(Cc2ccccc2)cc(-c2ccc[nH]c2=O)cc1C(C)(C)C equals 2.72

The recorded log10 IC50 for entry Cc1cc(-c2ccc[nH]c2=O)cc(C2(C)CCC2)c1 equals 3.16

The recorded log10 IC50 for entry COc1c(C(=O)Nc2ccc(OCC(N)=O)cc2)cc(-c2ccc[nH]c2=O)cc1C(C)(C)C equals 2.12

The recorded log10 IC50 for entry CC(C)(C)c1cc(CCc2ccc(NS(C)(=O)=O)cc2)c(C(N)=O)c(-c2ccc[nH]c2=O)c1 equals 0.48

The recorded log10 IC50 for entry COc1c(CCc2ccc(NS(C)(=O)=O)cc2)cc(-c2cc(F)c[nH]c2=O)cc1C(C)(C)C equals 1.00
